# TARGET_OR_SYSTEM: ETS1 (UniProt P14921)
# Sequence: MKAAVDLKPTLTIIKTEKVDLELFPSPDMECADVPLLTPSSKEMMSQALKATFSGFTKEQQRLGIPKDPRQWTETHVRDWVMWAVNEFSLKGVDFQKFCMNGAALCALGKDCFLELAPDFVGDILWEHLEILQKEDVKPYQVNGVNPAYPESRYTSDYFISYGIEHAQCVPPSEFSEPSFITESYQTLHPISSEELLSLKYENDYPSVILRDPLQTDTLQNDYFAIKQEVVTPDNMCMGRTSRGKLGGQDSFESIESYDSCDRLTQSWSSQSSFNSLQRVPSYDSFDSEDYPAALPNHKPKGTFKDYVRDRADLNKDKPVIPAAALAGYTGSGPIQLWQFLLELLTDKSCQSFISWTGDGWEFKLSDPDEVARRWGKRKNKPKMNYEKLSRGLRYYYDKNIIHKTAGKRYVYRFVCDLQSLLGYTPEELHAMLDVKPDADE
# PROTOCOL_DETAILS: ETS1 binding intensity (PBM fluorescence), ETS1 alone (arbitrary fluorescence units); higher = stronger binding
# CONDITION_DESCRIPTION: ETS1 concentration 1 nM; RUNX1 concentration 0 nM
VALUE_TYPE: ETS1 binding intensity
The answer should be written as a number, with no unit following it.

{"columns": ["SEQUENCE_STRING", "ETS1 binding intensity"],
 "data": [
  ["GGGAACTGGGGAAGGGGATGTGGTAACCAGAACCAC", 543]
]}

Query `GTTAGAGGAAGAGGAAGCGGTCAAGAGATCGTCACA` yields ETS1 binding intensity of 956

Query `CCTCAAAACCCGGAAACGCCTTGCGGGGCAGTGTGG` yields ETS1 binding intensity of 3330

Query `TGCTTCCGGCGGGCGCTTGCTCCCCGCGGTCCGCAC` yields ETS1 binding intensity of 657

Query `GCAGGACTTCCTGTGTTGTGCTAACCTCAAATTACA` yields ETS1 binding intensity of 975

Query `CCTGCTGCTTCCGCCCGGAGTTGTTGTGGGCTCCAG` yields ETS1 binding intensity of 643

Query `CCCACAGGAAATCCCCTGGTCTGTGGCGCCTCTGAT` yields ETS1 binding intensity of 881

Query `CGAGGGAGCCGGAAAGATGGTGGTTACCAGATCTGC` yields ETS1 binding intensity of 608

Query `TGCAGCTTCCTGTCTGAGGCTTTGTGGTCCTTTCAT` yields ETS1 binding intensity of 753
